The measurements presented in this section are drawn from patent US20090305995A1.

- method_summary: high throughput permeability (HT-Permeability, log Pe)
- Format: physicochemical
- condition_context: PAMPA, pH 6.8, pH 6.8; Pe in cm/s; read-out: HT-Permeability logPe pH 6.8 (converted)
quantity: Papp (×10⁻⁶ cm/s)

1) CC(=O)N(C)[C@H](CC(=O)N[C@H](Cc1c[nH]c2ccccc12)C(=O)N[C@@H](CCCCN)CC(=O)N[C@@H]1CC(=O)O[C@@H]1C)Cc1ccccc1: 2
2) CCCCNC(=O)C[C@H](CCCCN)NC(=O)[C@@H](Cc1c[nH]c2ccccc12)NC(=O)C[C@H](Cc1ccccc1)NC(C)=O: 1.58
3) CN(C(=O)C[C@@H](N)Cc1ccccc1)[C@H](Cc1c[nH]c2ccccc12)C(=O)N[C@@H](CCCCN)CC(N)=O: 7.94

###

- method_summary: high throughput solubility (HT-Solubility)
- Type: physicochemical
- condition_context: pH 6.8, pH 6.8; read-out: HT-Solubility pH 6.8
quantity: solubility (µg/mL)

1) CC(C)[C@@H](CC(=O)N(C)CCc1ccccc1)NC(=O)C[C@H](CCCCN)NC(=O)[C@@H](Cc1c[nH]c2ccccc12)NC(=O)C[C@H](Cc1ccccc1)NC(=O)C12CC3CC(CC(C3)C1)C2: 9
2) C[C@H]1OC(=O)C[C@H]1NC(=O)C[C@H](CCCCN)NC(=O)[C@@H](Cc1c[nH]c2ccccc12)NC(=O)C[C@H](Cc1ccccc1)NC(=O)C12CC3CC(CC(C3)C1)C2: 76.7
3) CC(=O)N[C@H](CC(=O)N[C@H](Cc1c[nH]c2ccccc12)C(=O)N[C@@H](CCCCN)CC(N)=O)Cc1ccccc1: 110

###

- method_summary: high throughput permeability (HT-Permeability, log Pe)
- Type: physicochemical
- condition_context: PAMPA, pH 8, pH 8.0; Pe in cm/s; read-out: HT-Permeability logPe pH 8.0 (converted)
Simple rule here: Papp less than 2 ×10⁻⁶ cm/s is label 1, otherwise label 0.

1. C[C@H]1OC(=O)C[C@H]1NC(=O)C[C@H](CCCCN)NC(=O)[C@@H](Cc1c[nH]c2ccccc12)NC(=O)C[C@H](Cc1ccccc1)NC(=O)C12CC3CC(CC(C3)C1)C2: label 0
2. CC(=O)N[C@H](CC(=O)N[C@H](Cc1c[nH]c2ccccc12)C(=O)N[C@@H](CCCCN)CC(=O)NC1CCCC1)Cc1ccccc1: label 1
3. CCCCCN(C)C(=O)C[C@H](CCCCN)NC(=O)[C@@H](Cc1c[nH]c2ccccc12)NC(=O)C[C@H](Cc1ccccc1)NC(=O)CCC: label 1
4. CCCC(=O)N[C@H](CC(=O)N[C@H](Cc1c[nH]c2ccccc12)C(=O)N[C@@H](CCCCN)CC(N)=O)Cc1ccccc1: label 1
5. CCCCCN(C)C(=O)C[C@H](CCCCN)NC(=O)[C@@H](Cc1c[nH]c2ccccc12)NC(=O)C[C@H](Cc1ccccc1)NC(C)=O: label 1
6. CCCCCNC(=O)C[C@H](CCCCN)NC(=O)[C@@H](Cc1c[nH]c2ccccc12)NC(=O)C[C@H](Cc1ccccc1)NC(=O)CC: label 0
7. CC(=O)N(C)[C@H](CC(=O)N[C@H](Cc1c[nH]c2ccccc12)C(=O)N[C@@H](CCCCN)CC(=O)N[C@@H]1CC(=O)O[C@@H]1C)Cc1ccccc1: label 0
8. C[C@H]1OC(=O)C[C@H]1NC(=O)C[C@H](CCCCN)NC(=O)[C@@H](Cc1c[nH]c2ccccc12)NC(=O)C[C@@H](N)Cc1ccccc1: label 0
9. NCCCC[C@@H](CC(=O)NC1CCCC1)NC(=O)[C@@H](Cc1c[nH]c2ccccc12)NC(=O)C[C@@H](N)Cc1ccccc1: label 0
10. CCCCN(C)C(=O)C[C@H](CCCCN)NC(=O)[C@@H](Cc1c[nH]c2ccccc12)NC(=O)C[C@H](Cc1ccccc1)NC(=O)CC: label 1
